# Experimental Target: dengue type 1 virus (DENV-1), Western Pacific strain, virions (dengue type 1 virus, UniProt P17763 281-775; P17763 115-280)
# Sequence (P17763 281-775 limits assumed, chain 1 of 2): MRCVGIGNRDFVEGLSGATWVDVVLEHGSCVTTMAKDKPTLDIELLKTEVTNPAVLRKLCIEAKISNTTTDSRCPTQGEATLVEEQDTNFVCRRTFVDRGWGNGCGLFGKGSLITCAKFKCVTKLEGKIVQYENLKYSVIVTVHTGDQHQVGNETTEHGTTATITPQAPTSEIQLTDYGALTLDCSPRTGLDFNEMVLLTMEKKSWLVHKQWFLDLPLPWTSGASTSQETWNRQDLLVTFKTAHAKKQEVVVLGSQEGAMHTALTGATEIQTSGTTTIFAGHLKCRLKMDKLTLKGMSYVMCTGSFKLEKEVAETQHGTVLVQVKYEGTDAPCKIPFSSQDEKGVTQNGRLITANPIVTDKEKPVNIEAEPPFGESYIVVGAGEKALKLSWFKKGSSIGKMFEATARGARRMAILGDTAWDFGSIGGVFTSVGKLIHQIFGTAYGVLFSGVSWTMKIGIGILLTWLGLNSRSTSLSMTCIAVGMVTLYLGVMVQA
# Sequence (P17763 115-280 limits assumed, chain 2 of 2): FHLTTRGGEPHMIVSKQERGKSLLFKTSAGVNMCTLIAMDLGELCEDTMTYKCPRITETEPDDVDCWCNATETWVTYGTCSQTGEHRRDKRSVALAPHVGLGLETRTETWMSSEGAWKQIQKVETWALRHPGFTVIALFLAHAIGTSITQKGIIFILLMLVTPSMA
# Protocol Text: ELISA, virion-coated plate, Fab from ~140 µg/ml
Endpoint Name: ELISA titer of Fab binding

Binder: chimpanzee Fab 2H7 (Fab, V domains shown) VH: EVQLLESGGGLVQPGGSRRLSCAASGFTISDNVMHWVRQAPGKGLEWVALIYSADSTHYADSVKGRFTISRDNSKNTLYLQMDGLRPEDTAVYYCAREYCTGGTCFAHFDYWGQGTLVTVSS VL: ELQMTQSPSSLSASVGDRVTITCRASQSITNYLSWYQQKPGKAPKLLISYSSTLQSGVPSRFSGSGSGTDFTLTISSLQPEDFATYYCHYGYGTHTFGPGTKVDIKR
Result: 4.1 log10 of reciprocal dilution
--
Binder: chimpanzee Fab 5H2 (Fab, V domains shown) VH: EVQLLESGPGLVKPSETLSLTCTVSGGSISDFYWSWLRQSPGKGLEWIGYAHSRVSAYYNPSLKSRVTISVDTSKNQLSLRLSAVTAADTALYYCARQGTGTTGVSEDPFDLWGQGTKVIVSL VL: ELQMTQSPSSLSASVGDRVTITCRASQDISIRLNWYQQKPGKAPKLLIYDASTLESGVPSRFSGSGSGTDFTLTISSLQPEDFATYYCQQFNSYPLTFGGGTKVEIKR
Result: < 1 log10 of reciprocal dilution
--
Binder: chimpanzee Fab 3A2 (Fab, V domains shown) VH: VQLLEQSGGGLVQPGGSRRLSCAVSGFTISDNVMHWVRQAPGKGLEWVALIYSADTTHYADSVKGRFTISRDNSKNTLYLQMDSLRPEDTAVYYCAREYCTGGTCFAHFDYWGQGTLVTVSS VL: ELTQSPSSVSASVGDTVTIACRASQSITNYLSWYQQKPGKAPKLLIYHASTLQSGIPSRFSGSGSGTDFTLTISSLQPDDFATYYCHYGYGTHTFGQGTKLEIKR
Result: 4.1 log10 of reciprocal dilution
